Just for reference, ChEMBL document CHEMBL1154736 is where these values come from.

# system: Voltage-gated inwardly rectifying potassium channel KCNH2 (Homo sapiens, UniProt Q12809, F656M)
# test-description: Inhibition of human recombinant ERG F656M mutant expressed in CHOK1 cells by whole-cell plate-based electrophysiology
# condition-label: cho-k1
assay-metric: delta pIC50 wt-mutant
Field format: numeric only.

Use the examples below as a reference point.
compound	delta pIC50 wt-mutant
COc1ccccc1Oc1ccccc1CN1CCC2(CC1)CCN(C(=O)c1ccc[nH]c1=O)CC2	0.22
CC(C)COc1ccccc1CN1CCC2(CC1)CCN(C(=O)c1ccncn1)CC2	0.21
CC1Cc2cccc(CN3CCC4(CC3)CCN(C(=O)c3ccncc3)CC4)c2O1 (centres undefined)	1.04

Now look at this entry.
Sample CC1(C)Cc2cccc(CN3CCC4(CC3)CCN(C(=O)c3ccc(N)cn3)CC4)c2O1 ; delta pIC50 wt-mutant observed: -0.31

###

# system: Voltage-gated inwardly rectifying potassium channel KCNH2 (Homo sapiens, UniProt Q12809, Y652F)
# test-description: Inhibition of human recombinant ERG Y652F mutant expressed in CHOK1 cells by whole-cell plate-based electrophysiology
# condition-label: cho-k1
Examples of molecules with documented delta pIC50 wt-mutant follow.
Field format: numeric only.

CC1(C)Oc2cccc(CN3CCC4(CC3)CCN(C(=O)c3ccnc(N)c3)CC4)c2O1 -0.19
COc1ccccc1Oc1ccccc1CN1CCC2(CC1)CCN(C(=O)c1ccc[nH]c1=O)CC2 0.35
CC1(C)Oc2c(CN3CCC4(CC3)CCN(C(=O)c3ccc(N)cn3)CC4)cccc2C1(F)F 0.02
CC1(C)Cc2cccc(CN3CCC4(CC3)CCN(C(=O)c3ncccc3N)CC4)c2O1 0.64

Now look at this entry.
Sample O=C(c1ccncc1)N1CCC2(CCN(Cc3ccccc3OC(F)(F)C(F)F)CC2)CC1 ; delta pIC50 wt-mutant observed: -0.32

###

# system: Voltage-gated inwardly rectifying potassium channel KCNH2 (Homo sapiens, UniProt Q12809, F656T)
# test-description: Inhibition of human recombinant ERG F656T mutant expressed in CHOK1 cells by whole-cell plate-based electrophysiology
# condition-label: cho-k1
Examples of molecules with documented delta pIC50 wt-mutant follow.
Field format: numeric only.

Use the examples below as a reference point.
molecule	experimental-value
CC1(C)CCc2cc(CN3CCC4(CC3)CCN(C(=O)c3ccncn3)CC4)ccc2O1	0.46
CC1(C)CCc2cc(CN3CCC4(CC3)CCN(C(=O)c3ccc(N)cn3)CC4)ccc2O1	-0.09
CC1Cc2cccc(CN3CCC4(CC3)CCN(C(=O)c3ccncc3)CC4)c2O1 (centres undefined)	1.41
CC1(C)Cc2cccc(CN3CCC4(CC3)CCN(C(=O)c3ncccc3N)CC4)c2O1	0.77
CC1(C)Oc2c(CN3CCC4(CC3)CCN(C(=O)c3ccc(N)cn3)CC4)cccc2C1(F)F	-0.17
CC1(C)Cc2cccc(CN3CCC4(CC3)CCN(C(=O)c3ccc(N)cn3)CC4)c2O1	0.51

Now look at this entry.
Sample COc1ccccc1Oc1ccccc1CN1CCC2(CC1)CCN(C(=O)c1ccc[nH]c1=O)CC2 ; delta pIC50 wt-mutant observed: 1.92

###

# system: Voltage-gated inwardly rectifying potassium channel KCNH2 (Homo sapiens, UniProt Q12809, Y652A)
# test-description: Inhibition of human recombinant ERG Y652A mutant expressed in CHOK1 cells by whole-cell plate-based electrophysiology
# condition-label: cho-k1
assay-metric: delta pIC50 wt-mutant
Field format: numeric only.

Sample CC1(C)Cc2cccc(CN3CCC4(CC3)CCN(C(=O)c3ccc(N)cn3)CC4)c2O1 ; delta pIC50 wt-mutant observed: 0.83
